Species: Rattus norvegicus
ASSAY_PROTOCOL: Open TG-GATES - Regimen: Single
Type: toxicity, organism-based, Sprague-Dawley
Parameters: regimen Single, gender Male, age 6 weeks
RUN_PARAMETERS: in vivo, po, 0 mg/kg, 9 h, tissue Plasma, route gavage, dose level Control
I'd appreciate it if you could supply CRE values for the items below.
One number for each entry, in mg/dL.

NS(=O)(=O)c1cc(C(=O)O)c(NCc2ccco2)cc1Cl [FUROSEMIDE]	0.2
CCCCNC(=O)NS(=O)(=O)c1ccc(C)cc1 [TOLBUTAMIDE]	0.1

Quick request: CRE for each listed item, please.
1. O=c1ccc2ccccc2o1 [COUMARIN]
2. CN(CCOc1ccc(CC2SC(=O)NC2=O)cc1)c1ccccn1.O=C(O)/C=C\C(=O)O (stereo not given) [ROSIGLITAZONE MALEATE]
3. Nc1ccc(Cc2ccc(N)cc2)cc1
4. CC(=O)[C@@]1(O)CC[C@H]2[C@@H]3C=C(Cl)C4=CC(=O)CC[C@]4(C)[C@H]3CC[C@@]21C [CHLORMADINONE]
5. O=C(O)c1ccccc1Nc1ccccc1 [FENAMIC ACID]
6. COc1cc2ncnc(Nc3ccc(F)c(Cl)c3)c2cc1OCCCN1CCOCC1 [GEFITINIB]
7. CC(S)C(=O)NCC(=O)O (stereo not given) [TIOPRONIN]
8. CN(C)CCCN1c2ccccc2Sc2ccc(Cl)cc21 [CHLORPROMAZINE]

Solution:
1. 0.5
2. 0.3
3. 0.2
4. 0.2
5. 0.2
6. 0.1
7. 0.1
8. 0.4

Quick request: CRE for each listed item, please.
1. CCN(CC)C(=S)SSC(=S)N(CC)CC
2. COc1ccc([C@@H]2Sc3ccccc3N(CCN(C)C)C(=O)[C@@H]2OC(C)=O)cc1 [DILTIAZEM]
3. C=C[C@H]1C[N@@]2CC[C@H]1C[C@@H]2[C@@H](O)c1ccnc2ccc(OC)cc12 [QUINIDINE]
4. CCO [ALCOHOL]
5. CN(C/C=C/C#CC(C)(C)C)Cc1cccc2ccccc12 [TERBINAFINE]

Solution:
0.2
0.2
0.2
0.5
0.4

Data provenance: ChEMBL document CHEMBL3885861
